Provenance of the data: ChEMBL document CHEMBL1125764

Below, each entry is listed with its recorded pKi.
Target: Muscarinic acetylcholine receptor M2 (Rattus norvegicus)
Sequence (P10980 whole entry): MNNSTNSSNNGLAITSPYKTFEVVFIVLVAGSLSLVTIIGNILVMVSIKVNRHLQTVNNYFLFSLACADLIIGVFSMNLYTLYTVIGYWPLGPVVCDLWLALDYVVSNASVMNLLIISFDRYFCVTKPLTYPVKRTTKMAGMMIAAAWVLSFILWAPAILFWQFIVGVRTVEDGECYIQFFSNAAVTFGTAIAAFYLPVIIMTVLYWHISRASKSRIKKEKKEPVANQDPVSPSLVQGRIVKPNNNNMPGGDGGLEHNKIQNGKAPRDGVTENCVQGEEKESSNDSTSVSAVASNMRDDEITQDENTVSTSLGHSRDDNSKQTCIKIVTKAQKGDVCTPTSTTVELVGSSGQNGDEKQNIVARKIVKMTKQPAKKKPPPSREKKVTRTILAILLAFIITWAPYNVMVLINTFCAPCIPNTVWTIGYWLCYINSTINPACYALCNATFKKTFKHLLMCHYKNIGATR
Please keep in mind that pKi is minus log10 of the molar concentration; only the number is needed.

These solved cases illustrate the format of a correct answer.
CCN(CC)CCOC(=O)C1(c2ccccc2)CCCC1 :: 7.50
CCN(CC)CCOC(=O)C1(c2ccc(N3CCCC3)cc2)CCCC1 :: 6.26
CCN(CC)CCOC(=O)C1(c2ccc(I)cc2)CCCC1 :: 6.91
CCN(CC)CCOC(=O)C1(c2ccc([N+](=O)[O-])cc2)CCCC1 :: 6.41
CCN(CC)CCOC(=O)C1(C2CCCCC2)CCCCC1 [DICYCLOMINE] :: 7.33

Could you please provide reported pKi for CCN(CC)CCOC(=O)C1(c2ccc(C#N)cc2)CCCC1 ? Thanks!
6.67

Could you please provide reported pKi for CCN(CC)CCOC(=O)C1(c2ccc(N)cc2)CCCC1 ? Thanks!
6.94

Could you please provide reported pKi for CCN(CC)CCOC(=O)C1(c2ccc(-n3cnnn3)cc2)CCCC1 ? Thanks!
6.36
